system-name: HLA-A*30:02
assay-details: IEDB peptide-MHC binding, purified MHC/competitive/radioactivity; filed as Kd, often an IC50 or EC50 that approximates it; bounds were set here for any values at or beyond the usual limits of such assays
experimental-parameters: source organism: SARS coronavirus Tor2
pKd: −log10 of the molar value.
Quick rule: pKd of at least 7 means true (1), below that means false (0).

{"residue-codes": "AFLIGANYL", "assigned-label": "false (0)"}

Prompt: Identify whether the reported pKd of the following sequence is 7 or greater: `TSNPKTPKY`
Completion: true (1)

Prompt: Identify whether the reported pKd of the following sequence is 7 or greater: `NFKHLREFVF`
Completion: false (0)

Prompt: Identify whether the reported pKd of the following sequence is 7 or greater: `CYGVSATKL`
Completion: false (0)

Prompt: Identify whether the reported pKd of the following sequence is 7 or greater: `NGDVVAIDY`
Completion: false (0)

Prompt: Identify whether the reported pKd of the following sequence is 7 or greater: `ISMMGFKMNY`
Completion: true (1)

Prompt: Identify whether the reported pKd of the following sequence is 7 or greater: `GYLKPTTFM`
Completion: false (0)

Prompt: Identify whether the reported pKd of the following sequence is 7 or greater: `YQCGHYTHI`
Completion: false (0)

====

system-name: HLA-B*07:02
assay-details: IEDB peptide-MHC binding, purified MHC/direct/fluorescence; filed as Kd, often an IC50 or EC50 that approximates it; bounds were set here for any values at or beyond the usual limits of such assays
experimental-parameters: source organism: Escherichia coli O157:H7 str. EC869
result-type: Kd (µM)
Give bare numbers, in µM.

Prompt: Please look up its Kd: `NIAAPYLPF`
Completion: 2.21

====

system-name: HLA-A*02:01
assay-details: IEDB peptide-MHC binding, purified MHC/competitive/fluorescence; bounds were set here for any values at or beyond the usual limits of such assays
experimental-parameters: source organism: Hepatitis C virus genotype 1
result-type: pIC50
One number for each entry, as −log10 of the molar value.

Prompt: Which pIC50 is reported with HLA-A*02:01 for this entry: `DLCGSVFLV` ?
Completion: 5.30

====

system-name: HLA-B*07:02
assay-details: IEDB peptide-MHC binding, purified MHC/direct/fluorescence; filed as Kd, often an IC50 or EC50 that approximates it; bounds were set here for any values at or beyond the usual limits of such assays
experimental-parameters: source organism: Brucella suis
result-type: Kd (nM)
Numbers only, in nM.

Prompt: Please look up its Kd: `LTLKPCHAL`
Completion: 1960

====

system-name: HLA-B*08:01
assay-details: IEDB peptide-MHC binding, purified MHC/direct/fluorescence; filed as Kd, often an IC50 or EC50 that approximates it; bounds were set here for any values at or beyond the usual limits of such assays
experimental-parameters: source organism: Orthohantavirus seoulense
result-type: pKd
Give bare numbers, as −log10 of the molar value.

Prompt: Please look up its pKd: `KPKHLYVSM`
Completion: 6.60

====

system-name: HLA-B*15:03
assay-details: IEDB peptide-MHC binding, purified MHC/competitive/radioactivity; filed as Kd, often an IC50 or EC50 that approximates it; bounds were set here for any values at or beyond the usual limits of such assays
experimental-parameters: source organism: Vaccinia virus WR
result-type: pKd
One number for each entry, as −log10 of the molar value.

{"residue-codes": "LMYILGTYG", "pKd": 6.90}
{"residue-codes": "TMVNSLTYF", "pKd": 9.90}
{"residue-codes": "FKAKWLTPF", "pKd": 10.14}
{"residue-codes": "LSTTRFQSM", "pKd": 5.60}
{"residue-codes": "FSNFSTSHI", "pKd": 6.29}

List the reported pKd of each sequence below.
1. ISAFPKNDF
2. ISWMMKLGI
3. KAFNHASVK

Completion:
1. 6.18
2. 6.39
3. 6.55

List the reported pKd of each sequence below.
1. KQKMFSNNV
2. FSALPTNEF
3. RLVRPFLVV

Completion:
1: 7.71; 2: 9.89; 3: 7.80
